# assay.comment: Pharmacokinetics experiments in CD-1 mice
# Assay type: in vivo, mouse
# experimental.conditions: CD-1, mouse, plasma, po; gavage 5 mg/kg; read-out: MRT0-inf
measured.metric: MRT inf (h)

entry_smiles=CC#CCn1c(N2CCC[C@@H](N)C2)nc2c1c(=O)n(Cc1nccnc1C#N)c(=O)n2C readout_value=3

* * *

# assay.comment: Pharmacokinetics experiments in CD-1 mice
# Type: in vivo, mouse
# experimental.conditions: CD-1, mouse, plasma; intravenous injection 2 mg/kg, 1.00 h; read-out: Plasma drug concentration
measured.metric: concentration at 1 h (ng/mL)

entry_smiles=CC#CCn1c(N2CCC[C@@H](N)C2)nc2c1c(=O)n(Cc1nccnc1C#N)c(=O)n2C measured_metric="concentration at 1 h" units_of_measure=ng/mL readout_value=161
